test system: chickweed (STEME, Stellaria media); assay: Postemergence greenhouse trial, herbicidal efficacy on chickweed; assay type: in vivo; conditions: post-emergence, 528 h, applied alone at 35 g/ha, postemergence, scored 20-22 d, read-out: Obs, % visual injury, STEME
Reported values of pest or weed control at 35 g/ha for individual entries
MEASURED PROPERTY: pest or weed control at 35 g/ha (%)

- COMPOUND: "Nc1c(F)c(-c2ccc3cc[nH]c3c2F)nc(C(=O)O)c1Cl"
  TARGET OR SYSTEM: "chickweed (STEME, Stellaria media)"
  OBSERVED MEASUREMENT: 100
- COMPOUND: "COC(=O)c1nc(-c2ccc3ccn(C(=O)C(C)(C)C)c3c2F)c(F)c(N)c1Cl"
  TARGET OR SYSTEM: "chickweed (STEME, Stellaria media)"
  OBSERVED MEASUREMENT: 85
- COMPOUND: "Nc1c(F)c(-c2ccc3cc[nH]c3c2F)nc(C(=O)OCc2ccccc2)c1Cl"
  TARGET OR SYSTEM: "chickweed (STEME, Stellaria media)"
  OBSERVED MEASUREMENT: 100
- COMPOUND: "COCC(=O)n1ccc2ccc(-c3nc(C(=O)OC)c(Cl)c(N)c3F)c(F)c21"
  TARGET OR SYSTEM: "chickweed (STEME, Stellaria media)"
  OBSERVED MEASUREMENT: 97
- COMPOUND: "CCOC(=O)c1nc(C(Cl)(Cl)Cl)n(-c2ccc(Cl)cc2Cl)n1 [fenchlorazole-ethyl, reference compound]"
  TARGET OR SYSTEM: "chickweed (STEME, Stellaria media)"
  OBSERVED MEASUREMENT: 0
- COMPOUND: "COC(=O)c1nc(-c2ccc3ccn(C(=O)C(C)C)c3c2F)c(F)c(N)c1Cl"
  TARGET OR SYSTEM: "chickweed (STEME, Stellaria media)"
  OBSERVED MEASUREMENT: 93
